# TARGET OR SYSTEM: Nonstructural protein 3 (Zika virus, UniProt A0A024AXB9)
# Sequence (A0A024AXB9 whole entry): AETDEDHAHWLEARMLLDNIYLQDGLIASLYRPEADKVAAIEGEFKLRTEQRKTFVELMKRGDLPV
# METHOD DESCRIPTION: Functional biochemical assay to identify treatments for viral infectious disease that targets Zika NS2B-NS3 protease. Utilizing a direct enzyme activity measurement method, reading the fluorescence intensity is used to characterize the relative potency of inhibitors as IC50.
# Set-up: species or system PRVABC59
pIC50: −log10 of the molar value.
READOUT TYPE: pIC50

Query O=C(O)[C@H]1C[C@H](n2ccc(Cc3c[nH]c4ccc(Cl)cc34)n2)C1 yields pIC50 of < 4.00

Query O=C(Nc1cc([C@H]2CCOC2)ccn1)c1cc(Br)cc2[nH]ccc12 yields pIC50 of < 4.60

Query O=C(Nc1ccc2c(c1)CNC2)c1cc(Cl)cc2nccnc12 yields pIC50 of 5.48

Query O=C(Nc1cc(Cl)cc(-c2cc3cc(C(=O)O)ncn3c2)c1)OCc1ccccc1 yields pIC50 of < 4.00

Query O=C(O)c1cc(Cl)ccc1NS(=O)(=O)c1ccc(OCc2cncnc2)cc1 yields pIC50 of < 4.00

Query CCn1cc(C(=O)N2CCN(C)CC2)nc(N2CC[C@@H](CO)C2)c1=O yields pIC50 of < 4.00

Query O=C(O)c1cc(Cl)ccc1S(=O)(=O)NC1CCN(c2nc(C3CC3)cc(C(F)(F)F)n2)CC1 yields pIC50 of 4.33

Query O=C(Nc1ccc2c(c1)CNC2)c1ncnc2sccc12 yields pIC50 of < 4.00

Query Cn1ccnc1C(=O)N1CCC([C@H](NC(=O)OCc2ccccc2)C(=O)Nc2cccc(CN)c2)CC1 yields pIC50 of < 4.00

Query Cc1ccc(NC(=O)c2cc(C3CC3)n(C)c2C)cc1CN yields pIC50 of < 4.00

Query C=CC[C@H](Nc1ccc(-c2nn[nH]n2)cc1)c1cc(Cl)cc(NC(=O)OCc2ccccc2)c1 yields pIC50 of 4.95

Query NCc1cccc(NC(=O)[C@@H](NS(=O)(=O)c2ccccn2)c2ccc(OCc3ccccc3)cc2)c1 yields pIC50 of < 4.00

Query Cc1c(NC(=O)OCc2ccccc2)cc(C(F)(F)F)cc1C(=O)Nc1cccc(CN)c1 yields pIC50 of 4.22

Query NC[C@H]1C[C@](F)(CNC(=O)c2cc(Cl)cc(NC(=O)OCc3ccccc3)c2)C1 yields pIC50 of 4.17

Query CC(C)(CNCc1c[nH]c2ccccc12)c1cccnc1 yields pIC50 of < 4.00

Query O=C(Nc1cc([C@H]2CCOC2)ccn1)c1cc(Cl)cc2[nH]ncc12 yields pIC50 of < 4.60

Query COC(=O)c1cncc(OCc2cc(OC)nc(N3CCNCC3)n2)c1 yields pIC50 of < 4.00

Query O=Cc1ccc(CC(=O)N2C[C@@H](O)[C@H](N3CCOCC3)C2)cc1 yields pIC50 of < 4.00

Query Cc1nn(CCO)c(C(F)F)c1C(=O)Nc1cccc(CN)c1 yields pIC50 of < 4.00

Query C[C@]1(C(=O)N[C@H](C(=O)Nc2cccc(CN)c2)c2ccc(OCc3ccccc3)cc2)COc2ccccc2O1 yields pIC50 of 4.77

Query O=C(Nc1cc(Cl)cc(-c2ccn3c(C(=O)O)cnc3c2)c1)OCc1ccccc1 yields pIC50 of < 4.00
